- Species on record: Rattus norvegicus
- Assay: Open TG-GATES - Regimen: Daily Repeat
- Type: toxicity, organism-based, Sprague-Dawley
- Design: regimen Daily Repeat, gender Male, age 6 weeks
- Experimental parameters: in vivo, po, 1000 mg/kg, […], tissue Blood, route gavage, dose level High, time 14 day
Listed here are compounds together with their documented PT.
Assay readout: PT (s)

- Compound smiles: "COC(=O)C1=C(C)NC(C)=C(C(=O)OC)C1c1ccccc1[N+](=O)[O-]"
  Meas value: 13.8
- Compound smiles: "O=C(OC[C@H]1O[C@@H](OC(=O)c2cc(O)c(O)c(OC(=O)c3cc(O)c(O)c(O)c3)c2)[C@H](OC(=O)c2cc(O)c(O)c(OC(=O)c3cc(O)c(O)c(O)c3)c2)[C@@H](OC(=O)c2cc(O)c(O)c(OC(=O)c3cc(O)c(O)c(O)c3)c2)[C@@H]1OC(=O)c1cc(O)c(O)c(OC(=O)c2cc(O)c(O)c(O)c2)c1)c1cc(O)c(O)c(OC(=O)c2cc(O)c(O)c(O)c2)c1"
  Meas value: 11.5
- Compound smiles: "CN/C(=N/CCSCc1nc[nH]c1C)NC#N"
  Meas value: 12.9
- Compound smiles: "CCOc1ccc(NC(C)=O)cc1"
  Meas value: 13.7
- Compound smiles: "Cc1nnc2n1-c1ccc(Cl)cc1C(c1ccccc1Cl)=NC2"
  Meas value: 13.3
- Compound smiles: "CNC(=C[N+](=O)[O-])NCCSCc1ccc(CN(C)C)o1"
  Meas value: 12.1

----------
- Species on record: Rattus norvegicus
- Assay: Open TG-GATES - Regimen: Single
- Format: toxicity, organism-based, Sprague-Dawley
- Set-up: regimen Single, gender Male, age 6 weeks
- Experimental parameters: in vivo, po, 100 mg/kg, 6 h, tissue Plasma, route gavage, dose level Low
Assay readout: Ca (mg/dL)

- Compound smiles: "O=C(OC[C@H]1O[C@@H](OC(=O)c2cc(O)c(O)c(OC(=O)c3cc(O)c(O)c(O)c3)c2)[C@H](OC(=O)c2cc(O)c(O)c(OC(=O)c3cc(O)c(O)c(O)c3)c2)[C@@H](OC(=O)c2cc(O)c(O)c(OC(=O)c3cc(O)c(O)c(O)c3)c2)[C@@H]1OC(=O)c1cc(O)c(O)c(OC(=O)c2cc(O)c(O)c(O)c2)c1)c1cc(O)c(O)c(OC(=O)c2cc(O)c(O)c(O)c2)c1"
  Unit abbrev: "mg/dL"
  Meas value: 10.8
- Compound smiles: "CNC(=C[N+](=O)[O-])NCCSCc1ccc(CN(C)C)o1"
  Unit abbrev: "mg/dL"
  Meas value: 10.5
- Compound smiles: "CN/C(=N/CCSCc1nc[nH]c1C)NC#N"
  Unit abbrev: "mg/dL"
  Meas value: 10.6
- Compound smiles: "COC(=O)C1=C(C)NC(C)=C(C(=O)OC)C1c1ccccc1[N+](=O)[O-]"
  Unit abbrev: "mg/dL"
  Meas value: 11.3
- Compound smiles: "Cc1nnc2n1-c1ccc(Cl)cc1C(c1ccccc1Cl)=NC2"
  Unit abbrev: "mg/dL"
  Meas value: 10.9

----------
- Species on record: Rattus norvegicus
- Assay: Open TG-GATES - Regimen: Single
- Format: toxicity, organism-based, Sprague-Dawley
- Parameters: regimen Single, gender Male, age 6 weeks
- Experimental parameters: in vivo, po, 300 mg/kg, 24 h, tissue Plasma, route gavage, dose level Middle
Assay readout: RALB

- Compound smiles: "CN/C(=N/CCSCc1nc[nH]c1C)NC#N"
  Meas value: "3.5 g/dL"
- Compound smiles: "Cc1nnc2n1-c1ccc(Cl)cc1C(c1ccccc1Cl)=NC2"
  Meas value: "2.6 g/dL"
- Compound smiles: "CNC(=C[N+](=O)[O-])NCCSCc1ccc(CN(C)C)o1"
  Meas value: "3.4 g/dL"
- Compound smiles: "O=C(OC[C@H]1O[C@@H](OC(=O)c2cc(O)c(O)c(OC(=O)c3cc(O)c(O)c(O)c3)c2)[C@H](OC(=O)c2cc(O)c(O)c(OC(=O)c3cc(O)c(O)c(O)c3)c2)[C@@H](OC(=O)c2cc(O)c(O)c(OC(=O)c3cc(O)c(O)c(O)c3)c2)[C@@H]1OC(=O)c1cc(O)c(O)c(OC(=O)c2cc(O)c(O)c(O)c2)c1)c1cc(O)c(O)c(OC(=O)c2cc(O)c(O)c(O)c2)c1"
  Meas value: "3.5 g/dL"
- Compound smiles: "COC(=O)C1=C(C)NC(C)=C(C(=O)OC)C1c1ccccc1[N+](=O)[O-]"
  Meas value: "2.8 g/dL"

----------
- Organism: Rattus norvegicus
- Assay: Open TG-GATES - Regimen: Daily Repeat
- Type: toxicity, organism-based, Sprague-Dawley
- Set-up: regimen Daily Repeat, gender Male, age 6 weeks
- Experimental parameters: in vivo, po, 0 mg/kg, […], tissue Liver, route gavage, dose level Control, time 28 day

- Molecule: "CCOc1ccc(NC(C)=O)cc1"
  Unit abbrev: "g"
  LIVER: 17
- Molecule: "CC(C)NNC(=O)c1ccncc1"
  Unit abbrev: "g"
  LIVER: 15.8
- Molecule: "CCCc1cc(=O)[nH]c(=S)[nH]1"
  Unit abbrev: "g"
  LIVER: 15.2
- Molecule: "CNC(=C[N+](=O)[O-])NCCSCc1ccc(CN(C)C)o1"
  Unit abbrev: "g"
  LIVER: 15.9
- Molecule: "CN(C)CCC(c1ccc(Cl)cc1)c1ccccn1 (stereo not drawn)"
  Unit abbrev: "g"
  LIVER: 17.3
- Molecule: "Cc1nnc2n1-c1ccc(Cl)cc1C(c1ccccc1Cl)=NC2"
  Unit abbrev: "g"
  LIVER: 15.3
- Molecule: "NC1=NC(=O)C(c2ccccc2)O1 (stereo not drawn)"
  Unit abbrev: "g"
  LIVER: 18.9
- Molecule: "Brc1ccccc1"
  Unit abbrev: "g"
  LIVER: 16.6

----------
Form field: TG (one value per entry).
- Organism: Rattus norvegicus
- Assay: Open TG-GATES - Regimen: Single
- Assay type: toxicity, organism-based, Sprague-Dawley
- Design: regimen Single, gender Male, age 6 weeks
- Experimental parameters: in vivo, po, 300 mg/kg, 9 h, tissue Plasma, route gavage, dose level Middle

- Compound smiles: "O=C(OC[C@H]1O[C@@H](OC(=O)c2cc(O)c(O)c(OC(=O)c3cc(O)c(O)c(O)c3)c2)[C@H](OC(=O)c2cc(O)c(O)c(OC(=O)c3cc(O)c(O)c(O)c3)c2)[C@@H](OC(=O)c2cc(O)c(O)c(OC(=O)c3cc(O)c(O)c(O)c3)c2)[C@@H]1OC(=O)c1cc(O)c(O)c(OC(=O)c2cc(O)c(O)c(O)c2)c1)c1cc(O)c(O)c(OC(=O)c2cc(O)c(O)c(O)c2)c1"
  TG [mg/dL]: 32.4
- Compound smiles: "Cc1nnc2n1-c1ccc(Cl)cc1C(c1ccccc1Cl)=NC2"
  TG [mg/dL]: 49.4
- Compound smiles: "CN/C(=N/CCSCc1nc[nH]c1C)NC#N"
  TG [mg/dL]: 36.4
- Compound smiles: "COC(=O)C1=C(C)NC(C)=C(C(=O)OC)C1c1ccccc1[N+](=O)[O-]"
  TG [mg/dL]: 28.2
- Compound smiles: "CNC(=C[N+](=O)[O-])NCCSCc1ccc(CN(C)C)o1"
  TG [mg/dL]: 46

----------
As shown below, each of these compounds has a reported K value.
- Organism: Rattus norvegicus
- Assay: Open TG-GATES - Regimen: Single
- Format: toxicity, organism-based, Sprague-Dawley
- Set-up: regimen Single, gender Male, age 6 weeks
- Experimental parameters: in vivo, po, 1000 mg/kg, 9 h, tissue Plasma, route gavage, dose level High

- Compound: "O=C(OC[C@H]1O[C@@H](OC(=O)c2cc(O)c(O)c(OC(=O)c3cc(O)c(O)c(O)c3)c2)[C@H](OC(=O)c2cc(O)c(O)c(OC(=O)c3cc(O)c(O)c(O)c3)c2)[C@@H](OC(=O)c2cc(O)c(O)c(OC(=O)c3cc(O)c(O)c(O)c3)c2)[C@@H]1OC(=O)c1cc(O)c(O)c(OC(=O)c2cc(O)c(O)c(O)c2)c1)c1cc(O)c(O)c(OC(=O)c2cc(O)c(O)c(O)c2)c1 [TANNIC ACID]"
  K: "5 meq/L"
- Compound: "COC(=O)C1=C(C)NC(C)=C(C(=O)OC)C1c1ccccc1[N+](=O)[O-] [NIFEDIPINE]"
  K: "5.3 meq/L"
- Compound: "CNC(=C[N+](=O)[O-])NCCSCc1ccc(CN(C)C)o1 [RANITIDINE]"
  K: "3.6 meq/L"
- Compound: "Cc1nnc2n1-c1ccc(Cl)cc1C(c1ccccc1Cl)=NC2 [TRIAZOLAM]"
  K: "4.4 meq/L"
- Compound: "CN/C(=N/CCSCc1nc[nH]c1C)NC#N [CIMETIDINE]"
  K: "3.7 meq/L"

----------
APTT by entry:
- Species on record: Rattus norvegicus
- Assay: Open TG-GATES - Regimen: Single
- Assay type: toxicity, organism-based, Sprague-Dawley
- Set-up: regimen Single, gender Male, age 6 weeks
- Experimental parameters: in vivo, po, 1000 mg/kg, 9 h, tissue Blood, route gavage, dose level High

- Compound smiles: "CNC(=C[N+](=O)[O-])NCCSCc1ccc(CN(C)C)o1"
  Unit abbrev: "s"
  APTT: 20.1
- Compound smiles: "CN/C(=N/CCSCc1nc[nH]c1C)NC#N"
  Unit abbrev: "s"
  APTT: 18.7
- Compound smiles: "O=C(OC[C@H]1O[C@@H](OC(=O)c2cc(O)c(O)c(OC(=O)c3cc(O)c(O)c(O)c3)c2)[C@H](OC(=O)c2cc(O)c(O)c(OC(=O)c3cc(O)c(O)c(O)c3)c2)[C@@H](OC(=O)c2cc(O)c(O)c(OC(=O)c3cc(O)c(O)c(O)c3)c2)[C@@H]1OC(=O)c1cc(O)c(O)c(OC(=O)c2cc(O)c(O)c(O)c2)c1)c1cc(O)c(O)c(OC(=O)c2cc(O)c(O)c(O)c2)c1"
  Unit abbrev: "s"
  APTT: 16.9
- Compound smiles: "Cc1nnc2n1-c1ccc(Cl)cc1C(c1ccccc1Cl)=NC2"
  Unit abbrev: "s"
  APTT: 16.7
- Compound smiles: "COC(=O)C1=C(C)NC(C)=C(C(=O)OC)C1c1ccccc1[N+](=O)[O-]"
  Unit abbrev: "s"
  APTT: 16.7
